- Substrate: N[C@@H](Cc1c[nH]c2ccccc12)C(=O)O
- assay remarks: HPLC end-point assay, Michaelis-Menten fit
- Type: biochemical, Micromonospora olivasterospora
- condition label: 2 mM DMAPP, 50 mM Tris pH 8.0, 37 °C

protein	output unit	kcat/Km
6DMATSmo (Micromonospora olivasterospora; H329Y) (protein) MAGLSVSDHLDGQLARLCEVAGADPVEPRNLLAGLLGPVGPRPLYEPPAWPSGVSDDHTPVEFSIAFNEAEPPTLRILGETLGSPPGPLANLSATRGFLDAQARRAGLSTSRLDSVRDLFATDDPQGDFAMWCSLVFRSSRRPEFKVYLNPEVKGVERSPALVSEALHRLGLGASYRALLDHGVRPGELGRGDRLTFFAVDLHDGPQARVKLYLTHHEAEVWDVTRAASVVDGVDVAEIEEFCVVAGGGTRRFDGRPLVGSYTFTEGADRPVGYSIYVPIRSYVTDDQEARDRVAALLVRYGFDTDGLDRAIAAVTPRPLRDGVGLIAYVSLRLGAPRPGVTVYLSAEAYRVSPPRPRRMPAGRDVSPAPVGRTRP	M⁻¹ s⁻¹	2.93

Values were extracted from paper PMC10292028.
